B1: Hairpin Ribozyme (parent)
chain: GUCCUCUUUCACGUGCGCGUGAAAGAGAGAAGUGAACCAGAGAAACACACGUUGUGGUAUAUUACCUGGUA

# Variants of: B1
# ASSAY_INFO: self-cleavage, relative activity (ratio to wild type); higher = more cleavage; co-transcriptional
READOUT: self-cleavage
Format: numeric value only, no unit, no commentary.

As a guide, the following entries are already answered.
Task item: # self-cleavage lookup, item U33A C66G
Reply: 0.101

Task item: Data request, read-out self-cleavage, for G32C A41C
Reply: 0.0995

// next entry
Task item: Given the variant A35G G56C , what is its reported self-cleavage?
Reply: 0.0996
